meta.source: patent US20140205612A1

tgt: JR-FL(E168K) Env on pseudovirus (HIV-1 JR-FL)
assay.protocol: cell-based or functional assay
recorded.metric: IC50 (ug/ml), pseudovirus neutralization, TZM-bl assay (µg/mL)
Numbers only, in µg/mL.

Lookup: Returns the measured IC50 (ug/ml), pseudovirus neutralization, TZM-bl assay for the input binder. Input: 1503_H05 (PG16) (TCN-119) (antibody, V domains shown) VH: QEKLVESGGGVVQPGGSLRLSCLASGFTFHKYGMHWVRQAPGKGLEWVALISDDGMRKYHSDSMWGRVTISRDNSKNTLYLQFSSLKVEDTAMFFCAREAGGPIWHDDVKYYDFNDGYYNYHYMDVWGKGTIVTVSS VL: QSALTQPASVSGSPGQTITISCNGTRSDVGGFDSVSWYQQSPGKAPKVMVFDVSHRPSGISNRFSGSKSGNTASLTISGLHIEDEGDYFCSSLTDRSHRIFGGGTKVTVLG
Found: 0.002

Lookup: Which IC50 (ug/ml), pseudovirus neutralization, TZM-bl assay is listed for 1469_M23 (PG16) (TCN-118) (antibody, V domains shown) VH: QEKLVESGGGVVQPGGSLRLSCLASGFTFHKYGMHWVRQAPGKGLEWVALISDDGMRKYHSDSMWGRVTISRDNSKNTLYLQFSSLKVEDTAMFFCAREAGGPIWHDDVKYYDFNDGYYNYHYMDVWGKGTTVTVSS VL: QSALTQPASVSGSPGQTITISCNGTRSDVGGFDSVSWYQQSPGRAPKVMVFDVSHRPSGISNRFSGSKSGNTASLTISGLHIEDEGDYFCSSLTDRSHRIFGGGTKLTVLG ?
Found: 0.005

***
Lookup: Param item = 1456_A12 (PG16) (TCN-117) (antibody, V domains shown) VH: HEQLVEAGGGVVQPGGSLRLSCLASGFTFHKYGMHWVRQAPGKGLEWVALISDDGMRKYHSDSMWGRVTISRDNSKNTLYLQFSSLRVEDTAMFFCAREAGGPIWHDDVKYYDFNDGYYNYHYMDVWGKGTKVTVSS VL: QSALTQPASVSGSPGQTITISCNGTSRDVGGFDSVSWYQQSPGKAPKVMVFDVSHRPSGMSNRFSGSKSGNTASLTISGLHIEDEGDYFCSSLTDRSHRIFGGGTKLTVLG ; retrieve measured IC50 (ug/ml), pseudovirus neutralization, TZM-bl assay.
Found: 0.003
